Where do the numbers come from? From patent US20240261292A1.

# target-entity: UniProt:Q12809
# Sequence (Q12809 whole entry): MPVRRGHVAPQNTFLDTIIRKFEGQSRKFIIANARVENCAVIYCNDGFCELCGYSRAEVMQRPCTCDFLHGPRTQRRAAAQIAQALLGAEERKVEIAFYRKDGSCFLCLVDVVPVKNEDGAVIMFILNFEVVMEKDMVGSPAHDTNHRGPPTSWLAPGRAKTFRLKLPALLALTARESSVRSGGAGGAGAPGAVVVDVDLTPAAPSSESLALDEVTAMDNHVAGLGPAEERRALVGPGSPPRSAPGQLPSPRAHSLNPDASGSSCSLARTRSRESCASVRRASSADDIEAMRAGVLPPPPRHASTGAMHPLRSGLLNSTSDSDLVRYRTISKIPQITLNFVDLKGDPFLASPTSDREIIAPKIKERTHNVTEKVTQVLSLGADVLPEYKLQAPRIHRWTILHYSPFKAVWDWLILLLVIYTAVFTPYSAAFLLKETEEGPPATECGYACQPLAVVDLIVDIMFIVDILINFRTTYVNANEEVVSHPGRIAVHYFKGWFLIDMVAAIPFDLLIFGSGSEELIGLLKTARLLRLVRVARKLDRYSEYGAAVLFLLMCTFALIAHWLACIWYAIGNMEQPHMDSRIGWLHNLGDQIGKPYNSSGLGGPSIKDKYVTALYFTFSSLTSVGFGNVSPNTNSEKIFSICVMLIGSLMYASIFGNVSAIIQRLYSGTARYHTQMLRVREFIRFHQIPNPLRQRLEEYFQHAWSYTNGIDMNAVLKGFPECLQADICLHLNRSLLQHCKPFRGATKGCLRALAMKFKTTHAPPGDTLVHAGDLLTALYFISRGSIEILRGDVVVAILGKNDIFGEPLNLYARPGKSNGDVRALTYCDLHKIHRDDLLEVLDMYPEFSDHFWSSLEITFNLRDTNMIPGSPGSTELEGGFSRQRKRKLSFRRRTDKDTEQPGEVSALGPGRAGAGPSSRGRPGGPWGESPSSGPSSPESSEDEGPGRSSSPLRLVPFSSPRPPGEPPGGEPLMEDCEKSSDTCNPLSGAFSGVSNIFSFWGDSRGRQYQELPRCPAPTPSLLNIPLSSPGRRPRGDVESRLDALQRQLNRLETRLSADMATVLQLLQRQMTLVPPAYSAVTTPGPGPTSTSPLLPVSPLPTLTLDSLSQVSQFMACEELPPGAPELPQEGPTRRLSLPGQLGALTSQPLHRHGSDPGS
# assay-method-text: hERG current in hERG-transfected HEK293 cells (Protocol 2, SyncroPatch 384PE)
# condition-summary: Protocol 2, HEK293 cells
pIC50: −log10 of the molar value.
measurement-kind: pIC50

Give a short answer stating reported pIC50 for CCN(C(=O)c1cc(F)ccc1Oc1nncnc1N1CCC2(C1)CN([C@H](CCCNCCOC)C(C)C)C2)C(C)C [Compound 11] .
< 4.52

====

Answer each item with its documented pIC50.
# System: OCI-AML3 cells
# assay-method-text: Proliferation assay (spheroid), OCI-AML3
# Format: cell-based, human
# condition-summary: Homo sapiens, OCI-AML-3, […], 8 days
# Procedure: The anti-proliferative effect of menin/MLL protein/protein interaction inhibitor test compounds was assessed inhuman leukemia cell lines. […] In order to assess the anti-proliferative effects, 200 MOLM-14 cells, 200 OCI-AML3 cells or 300 KO-52 cells were seeded in 200 μl media per well in 96-well round bottom, ultra-low attachment plates (Costar, catalogue number 7007). […] Spheroid like growth was measured in real-time by live-cell imaging (IncuCyteZOOM, Essenbio, 4× objective) acquiring images at day 8. […]
Expect pIC50 as a plain number equal to -log10 of the molar concentration.

Look up and report pIC50, with OCI-AML3 cells as system, for CCN(C(=O)c1cc(F)ccc1Oc1nncnc1N1CCC2(C1)CN([C@H](CCCNCCOC)C(C)C)C2)C(C)C [Compound 11]
6.68

Give pIC50 for CCN(C(=O)c1cc(F)ccc1Oc1nncnc1N1CCC2(C1)CN([C@H](CCCN(C)CCOC)C(C)C)C2)C(C)C [Compound A3] tested on OCI-AML3 cells.
6.92

====

# assay-method-text: Metabolic stability in mouse liver microsomes
# Assay type: in vitro ADME
# condition-summary: liver microsomes, pH 7.4, 0.5 mg/mL microsomes protein, read-out: Mouse LM Clint
Kindly supply the reported microsomal CLint at 1 μM values for the records listed here.

Please give the documented microsomal CLint at 1 μM of CCN(C(=O)c1cc(F)ccc1Oc1nncnc1N1CCC2(C1)CN([C@H](CCCNCCOC)C(C)C)C2)C(C)C [Compound 11]
< 7.5 µL/min/mg

Item CCN(C(=O)c1cc(F)ccc1Oc1nncnc1N1CCC2(C1)CN([C@H](CCCN(C)CCOC)C(C)C)C2)C(C)C [Compound A] : provide microsomal CLint at 1 μM
< 7.5 µL/min/mg

====

# assay-method-text: Mouse PK (in vivo T1/2 and oral bioavailability)
# condition-summary: male, CD-1, mouse, in vivo, po, 5 mg/kg, fasted male CD-1 mice, single PO 5 mg/kg; formulating agent: A HP-β-CD, A3 Pyrogen free water
# Procedure: 3) Mouse PK (In Vivo T1/2 and Oral Bioavailability) In vivo pharmacokinetics (PK) were assessed in fasted male CD-1 mice (age 6-8 weeks) following a single intravenous (IV, 0.5 or 1.0 mg/kg administered at 2.5 ml/kg) or oral (PO, 5 mg/kg administered at 10 ml solution/kg) dose of test article formulated in a 20% (w:vol) HP-β-CD solution or in Pyrogen free water. […]
measurement-kind: bioavailability (%)
Reply with just the number (in %).

Report measured bioavailability; entry is `CCN(C(=O)c1cc(F)ccc1Oc1nncnc1N1CCC2(C1)CN([C@H](CCCN(C)CCOC)C(C)C)C2)C(C)C`
17
